These measurements were taken from PubChem BioAssay AID504832.

protocol details: Primary qHTS for delayed death inhibitors of the malarial parasite plastid, 48 hour incubation
details: P. falciparum luciferase growth in erythrocytes; series mostly up to 28.7 µM
The campaign covered roughly 310,000 compounds. About 18,000 (5.8%) were called active. Roughly 22% stayed inconclusive and do not appear here. The call rests on the fitted dose curve; in most records, active means well fitted inhibition curve with a large enough effect; inconclusive means small, poorly fitted or top-dose-only effect, or another doubt; inactive means no such curve, though single readings can be large or run the other way. What follows is part of a selection rich in actives, with near analogues and random picks from the rest.
Could you please pick one outcome from this set? active, inactive

Some solved entries appear below for comparison.
[[record]]
molecule = "COc1ccc(CN(C(=O)CSc2nnc(-c3ccc(OC)c(OC)c3)o2)c2ccc(F)cc2)cc1"
answer_label = "active"

[[record]]
molecule = "O=C(CNC(=O)c1ccc(F)cc1)c1ccccc1"
answer_label = "inactive"

[[record]]
molecule = "O=C(NCCC1CCCCN1S(=O)(=O)c1cccs1)C(=O)Nc1ccc(F)cc1F (stereo not drawn)"
answer_label = "inactive"

[[record]]
molecule = "O=C(/C=C/c1ccc(Cl)cc1Cl)NCc1ccco1"
answer_label = "active"

[[record]]
molecule = "COc1ccc(CCn2c(=N)c(C(=O)NCc3ccco3)cc3c(=O)n4cccc(C)c4nc32)cc1"
answer_label = "active"


In this assay, the call recorded for O=C(Nc1ccccc1C(=O)NCC1CCCO1)c1ccccc1F (stereo not drawn) was what?
inactive

In this assay, the call recorded for O=C(C[n+]1cc(Br)cc2ccccc21)c1ccc(F)cc1 was what?
active

In this assay, the call recorded for COc1cc(OC)cc(C(=O)NCCCn2ccnc2)c1 was what?
inactive

In this assay, the call recorded for CSc1ccccc1NC(=O)C(C)N1C(=O)c2ccccc2S1(=O)=O (stereo not drawn) was what?
inactive

In this assay, the call recorded for Cn1c(=O)[nH]c(=O)c2c1nc(N1CCCCCC1)n2CC(=O)c1ccccc1 was what?
inactive

In this assay, the call recorded for COC(=O)/C=C/C(=O)NCc1ccco1 was what?
inactive

In this assay, the call recorded for COC(=O)C[n+]1cccc2ccccc21 was what?
inactive

In this assay, the call recorded for Cc1ccc2nc3c(cc(C(=O)NCCc4ccccc4)c(=N)n3CC3CCCO3)c(=O)n2c1 (stereo not drawn) was what?
active

In this assay, the call recorded for CCOC(=O)c1cccc(NC(=O)C2CCN(c3ncnc4c3nc3n4CCCCC3)CC2)c1 was what?
inactive

In this assay, the call recorded for O=C(NCc1ccccc1Cl)C1CCCN1S(=O)(=O)c1ccc(F)cc1 (stereo not drawn) was what?
inactive

In this assay, the call recorded for O=S(=O)(c1ccc(Cl)s1)N1CCC2(CC1)OCCO2 was what?
inactive

In this assay, the call recorded for O=C(CCNC(=O)c1ccccc1Cl)NCc1ccco1 was what?
inactive

----------
protocol details: Primary qHTS for delayed death inhibitors of the malarial parasite plastid, 48 hour incubation
details: P. falciparum luciferase growth in erythrocytes; series mostly up to 28.7 µM
Out of some 310,000 compounds screened, about 18,000 (5.8%) were called active. Another 22% or so got no clear call; they are omitted. Calls come from the whole dose curve; as a rule, active = well fitted inhibition curve with a large enough effect; inconclusive = small, poorly fitted or top-dose-only effect, or another doubt; inactive = no such curve, though single readings can be large or run the other way. Only a selection was taken, and actives are over-represented in it overall.
Could you please pick one outcome from this set? Y for active, N for inactive

Some solved entries appear below for comparison.
[[record]]
molecule = "CN(C(=O)CN1C(=O)/C(=C/c2ccc(Cl)cc2)SC1=S)C1CCS(=O)(=O)C1 (stereo not given)"
answer_label = "N"

[[record]]
molecule = "CC(NC(=O)c1cc2cc(Cl)ccc2oc1=N)c1ccccc1 (stereo not given)"
answer_label = "N"


In this assay, the call recorded for Cc1cc(C)n(-c2ccc(NC(=O)C3CCCCN3C(=O)c3cccs3)cc2)n1 (stereo not given) was what?
N

In this assay, the call recorded for Cc1ccc(N(C(=O)c2ccc(CN3CCOCC3)o2)C(C(=O)NCCC(C)C)c2cccs2)c(C)c1 (stereo not given) was what?
Y

In this assay, the call recorded for COc1ccc(C(=O)Nc2ccccc2C(=O)NCc2ccco2)cc1 was what?
N

In this assay, the call recorded for CCCCn1nc(C(=O)Nc2cccc(C(=O)NC3CC3)c2)c2ccccc2c1=O was what?
Y

In this assay, the call recorded for O=C(NC1CCCCC1)c1cc([N+](=O)[O-])ccc1N1CCOCC1 was what?
N

In this assay, the call recorded for CS(=O)(=O)c1sc2nc(-c3ccccc3)cc(-c3ccccc3)c2c1N was what?
Y

In this assay, the call recorded for Cc1ccc(N(Cc2ccc(C(=O)Nc3ccccc3C(=O)NCc3ccco3)cc2)S(C)(=O)=O)cc1C was what?
Y

In this assay, the call recorded for CCCn1nc(C(=O)Nc2ccc3nc(C)sc3c2)c2ccccc2c1=O was what?
N

In this assay, the call recorded for C/C(=N\NC(=O)c1nc(C)cc(C)n1)c1ccccc1 was what?
N

----------
protocol details: Primary qHTS for delayed death inhibitors of the malarial parasite plastid, 48 hour incubation
details: P. falciparum luciferase growth in erythrocytes; series mostly up to 28.7 µM
Out of some 310,000 compounds screened, about 18,000 (5.8%) were called active. Another 22% or so got no clear call; they are omitted. Calls follow the shape of the dose curve; as a rule, active = well fitted inhibition curve with a large enough effect; inconclusive = small, poorly fitted or top-dose-only effect, or another doubt; inactive = no such curve, though single readings can be large or run the other way. Shown is part of a subset that was picked to be rich in actives.
Could you please pick one outcome from this set? 1.0 (active), 0.0 (inactive)

[[record]]
structure_as_smiles = "CN(CC(=O)Nc1ccc(Cl)cc1)CC(=O)Nc1cccc2ccccc12"
answer_label = 0.0

[[record]]
structure_as_smiles = "COc1ccccc1-n1c(SCC(=O)Nc2cccc(C(=O)O)c2)nnc1-c1ccccc1O"
answer_label = 0.0

[[record]]
structure_as_smiles = "O=C(CN1CCN(S(=O)(=O)c2ccc(F)cc2)CC1)Nc1ccccc1F"
answer_label = 0.0


In this assay, the call recorded for CN(CC(=O)Nc1c(Cl)cccc1Cl)C(=O)CNC(=O)C1CCCCC1 was what?
0.0

In this assay, the call recorded for O=C(CN1CCN(S(=O)(=O)c2ccc(Br)cc2)CC1)Nc1ccccc1C(=O)c1ccccc1 was what?
1.0

----------
protocol details: Primary qHTS for delayed death inhibitors of the malarial parasite plastid, 48 hour incubation
details: P. falciparum luciferase growth in erythrocytes; series mostly up to 28.7 µM
Text: The goal of this screen is to discover new antimalarial compounds that act by inhibiting the development of the apicoplast in the malarial parasite Plasmodium falciparum. […] We have developed a cell-based assay that measures parasite growth based on the expression of an integrated copy of a firefly luciferase reporter. […] Growth inhibition is detected by a decrease in luciferase activity. […]
In all, about 310,000 compounds went through this assay and about 18,000 (5.8%) were called active. Not shown: some 22% with an inconclusive outcome. The call rests on the fitted dose curve; in most records, active means well fitted inhibition curve with a large enough effect; inconclusive means small, poorly fitted or top-dose-only effect, or another doubt; inactive means no such curve, though single readings can be large or run the other way. The sample as a whole holds a higher share of actives than the screen did.
Could you please pick one outcome from this set? 1.0 (active), 0.0 (inactive)

[[record]]
molecule = "COc1ccc(C2=NN(C(=O)CSc3nnnn3C)C(c3ccco3)C2)cc1 (stereo unspecified)"
answer_label = 0.0

[[record]]
molecule = "N#Cc1c(Cl)nc(-c2cccnc2)nc1-c1ccccc1"
answer_label = 0.0

[[record]]
molecule = "COc1cc2ccccc2cc1C(=O)Nc1ccccc1C"
answer_label = 0.0


In this assay, the call recorded for COC(=O)c1c(NC(=O)c2ccc(S(=O)(=O)N3CCOCC3)cc2)sc2c1CCN(C(C)C)C2 was what?
1.0

In this assay, the call recorded for CC(C)CC(=O)Nc1ccc(Cc2ccncc2)cc1 was what?
0.0

In this assay, the call recorded for COc1ccc(C)cc1NC(=O)c1cc(-c2ccccc2)nc2c1cnn2C(C)C was what?
1.0

In this assay, the call recorded for COc1ccc(C)cc1NC(=O)Nc1ccccc1SC was what?
0.0

In this assay, the call recorded for O=C(Nc1ccncc1)Nc1ccc(F)cc1 was what?
1.0

In this assay, the call recorded for COc1cccc(NC(=O)CN(C)C(=O)CSC(=S)N2CCCC2)c1 was what?
0.0

In this assay, the call recorded for CC(OC(=O)c1ccc(S(=O)(=O)N2CCOCC2)cc1)c1ccccc1 (stereo unspecified) was what?
0.0

In this assay, the call recorded for CNC(=O)c1ccsc1NC(=O)c1ccc(S(=O)(=O)N2CCOCC2)cc1 was what?
0.0

----------
protocol details: Primary qHTS for delayed death inhibitors of the malarial parasite plastid, 48 hour incubation; further: potency means the concentration at half of the fitted maximal effect
details: P. falciparum luciferase growth in erythrocytes; series mostly up to 28.7 µM
Screen size: about 310,000 compounds; about 18,000 (5.8%) were called active. Inconclusive results (about 22%) are left out. This is one part of a sample in which actives are shown more often than they occur.
metric name: Potency

Sample records with Potency:
[[record]]
molecule = "COc1ccc(S(=O)(=O)N2CCC(C(=O)N3CCCC3)CC2)cc1C"
metric_name = "Potency"
assay_value = "inactive"

[[record]]
molecule = "COc1cc(C2C(C#N)=C(C)NC3=C2C(=O)CC(C)(C)C3)ccc1O (stereo not drawn)"
metric_name = "Potency"
assay_value = "10.4 µM (active)"

[[record]]
molecule = "CCc1c(C)nc(SCC(=O)NC2CCCC2)[nH]c1=O"
metric_name = "Potency"
assay_value = "inactive"

[[record]]
molecule = "COc1ccccc1C(=O)Nc1cccc(C(=O)N2CCOCC2)c1"
metric_name = "Potency"
assay_value = "inactive"

[[record]]
molecule = "CCOC(=O)N1CCC(NC(=O)CCc2ccccc2)CC1"
metric_name = "Potency"
assay_value = "inactive"


Below are some molecules; for each one, tell me its Potency.
1. Cn1cc(C(=O)NCc2ccccc2F)cn1
2. CCOC(=O)N1CCC(c2cc(=O)n(-c3ccccc3)[nH]2)CC1
3. CC(=O)C1=C(C)NC2=C(C(=O)CC(C)(C)C2)C1C (stereo not drawn)
4. CC(C)(C)NC(=O)NC(=O)COC(=O)C1c2ccccc2Oc2ccccc21
5. Cn1c2cc(B(O)O)sc2c2cnn(Cc3ccccc3F)c(=O)c21
6. Cc1ccc(NC(=O)COc2ccc(-n3ccnc3)cc2)cc1Cl
7. N#Cc1ccc(Cn2cc(C(=O)c3ccco3)c3ccccc32)cc1

1. inactive
2. 9.28 µM (active)
3. inactive
4. inactive
5. 10.4 µM (active)
6. 9.28 µM (active)
7. inactive

Below are some molecules; for each one, tell me its Potency.
1. Cc1ccc(NC(=O)COc2ccc(/C=N\NC(=O)c3cccnc3)cc2)cc1C
2. COc1ccc(N2CCN(C(=O)C3CCN(C(=O)c4ccccc4Cl)CC3)CC2)cc1

1. inactive
2. inactive

Below are some molecules; for each one, tell me its Potency.
1. Cc1cccc(NC(=O)Cn2cc(C(=O)c3ccco3)c3ccccc32)c1
2. O=c1c2ccccc2cnn1Cc1n[nH]c(=S)n1-c1ccccc1F
3. CC(=O)c1ccc(N2Cc3ccccc3C2)cc1
4. CCOC(=O)CN1CCC(c2ccccc2)CC1
5. Cc1ccc(C)c(NC(=O)COC(=O)CSc2ccccc2)c1
6. COC(=O)c1ccc(NS(=O)(=O)c2cc3c4c(c2)C(C)C(=O)N4CCC3)cc1 (stereo not drawn)
7. CC1CCN(C(=O)Cn2cc(C(=O)c3ccco3)c3ccccc32)CC1

inactive
inactive
inactive
inactive
inactive
inactive
9.28 µM (active)

Below are some molecules; for each one, tell me its Potency.
1. CCC1C(C#N)=C(SC)NC2=C1C(=O)CC(C)(C)C2 (stereo not drawn)
2. CCc1noc(C)c1C(=O)Nc1nc(-c2ccccc2)cs1

["inactive", "inactive"]
